# experimental.system: T1, CEACAM5 (R&D Systems, 4128-CM-050) (human, UniProt P06731 35-685)
# T1 construct: Immobilised on the ELISA plate; also called human CEACAM5
# T1 sequence (looked up): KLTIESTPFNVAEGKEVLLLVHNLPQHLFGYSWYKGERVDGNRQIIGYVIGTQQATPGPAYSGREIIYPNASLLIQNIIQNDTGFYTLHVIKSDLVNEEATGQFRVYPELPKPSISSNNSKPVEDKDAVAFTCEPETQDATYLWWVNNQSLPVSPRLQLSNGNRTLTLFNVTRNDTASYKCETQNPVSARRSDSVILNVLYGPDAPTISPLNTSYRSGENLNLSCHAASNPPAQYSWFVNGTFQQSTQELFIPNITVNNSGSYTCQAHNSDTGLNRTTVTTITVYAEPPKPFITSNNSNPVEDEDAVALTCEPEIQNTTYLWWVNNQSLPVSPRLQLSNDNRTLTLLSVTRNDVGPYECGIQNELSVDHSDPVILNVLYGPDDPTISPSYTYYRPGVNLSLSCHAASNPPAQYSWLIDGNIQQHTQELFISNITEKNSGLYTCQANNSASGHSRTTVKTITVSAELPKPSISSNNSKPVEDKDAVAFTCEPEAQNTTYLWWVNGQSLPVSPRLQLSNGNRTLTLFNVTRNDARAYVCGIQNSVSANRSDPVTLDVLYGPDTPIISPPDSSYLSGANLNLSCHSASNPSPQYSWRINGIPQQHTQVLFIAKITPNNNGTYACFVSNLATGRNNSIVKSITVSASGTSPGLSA
# experiment.notes: ELISA on immobilised CEACAM5, 4-parameter fit, duplicate
assay.metric: EC50
Show the value, then the unit it is measured in.

Query: EC50; subject: [Gd/4arm-DOTA-CH2-(1,4-Ph)-NH-C(═S)-Gly-Phe-Lys*-Z2(#N)]p-Fab^2 (Fab, V domains shown, labeling may sit on this chain; sites not stated; labeling portion (MW 1136) on amino groups of the Fab, sites and chain not stated; 1-3 per Fab by MS, also called Ex-No 12; Conjugate No. 12) VH: EVQLVESGGGLVQPGGSLRLSCAASGFNIRDTYMHWVRQAPGKGLEWVARIDPANGNSRYVPKFQGRFTISADTSRNTAYLQMNSLRAEDTAVYYCAPFGYYVSDYAMAYWGQGTLVTVSS VL: DIQLTQSPSSLSASVGDRVTITCRAGESVDIFGVGFLHWYQQKPGKAPKLLIYRASNLESGIPSRFSGSGSRTDFTLTISSLQPEDFATYYCQQTNEDPYTFGQGTKVEIKR
110 pM

Query: EC50; subject: [Gd/DOTA-NH-(CH2CH2O)3-CH2-C(═O)-NH-CH2-(1,3-Ph)-C(═O)-Gly-Lys*-Z2(#N)]p-Fab^2 (Fab, V domains shown, labeling may sit on this chain; sites not stated; labeling portion (MW 1147) on amino groups of the Fab, sites and chain not stated; 1-3 per Fab by MS, also called Ex-No 15; Conjugate No. 15) VH: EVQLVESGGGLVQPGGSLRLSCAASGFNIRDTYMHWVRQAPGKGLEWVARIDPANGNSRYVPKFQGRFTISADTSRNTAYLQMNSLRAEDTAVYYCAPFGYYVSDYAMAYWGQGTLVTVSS VL: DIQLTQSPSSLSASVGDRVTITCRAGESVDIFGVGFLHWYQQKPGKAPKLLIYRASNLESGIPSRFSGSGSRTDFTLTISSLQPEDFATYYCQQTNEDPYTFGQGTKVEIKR
130 pM

Query: EC50; subject: (Y-S1-X)p-Fab^2 with Y Gd/DOTA, S1 - (bond), X -Gly-Lys*-Z2(#S)- (Fab, V domains shown, labeling may sit on this chain; sites not stated; labeling portion (MW 926) on amino groups of the Fab, sites and chain not stated; 1-2 per Fab by MS, also called Ex-No 5; conjugate 5) VH: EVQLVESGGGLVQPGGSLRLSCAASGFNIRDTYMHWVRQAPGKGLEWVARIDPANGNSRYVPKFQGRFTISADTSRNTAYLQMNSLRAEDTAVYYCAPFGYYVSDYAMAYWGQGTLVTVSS VL: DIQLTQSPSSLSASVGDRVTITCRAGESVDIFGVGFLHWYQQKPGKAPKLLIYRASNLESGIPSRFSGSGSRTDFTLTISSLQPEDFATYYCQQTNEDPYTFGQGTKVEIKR
140 pM
